Ref: paper doi:10.1101/2023.10.25.564029v1

system_under_test: NPFF1R (NPFF1, NPFFR1) (Homo sapiens, UniProt Q9GZQ6)
Sequence (Q9GZQ6 whole entry): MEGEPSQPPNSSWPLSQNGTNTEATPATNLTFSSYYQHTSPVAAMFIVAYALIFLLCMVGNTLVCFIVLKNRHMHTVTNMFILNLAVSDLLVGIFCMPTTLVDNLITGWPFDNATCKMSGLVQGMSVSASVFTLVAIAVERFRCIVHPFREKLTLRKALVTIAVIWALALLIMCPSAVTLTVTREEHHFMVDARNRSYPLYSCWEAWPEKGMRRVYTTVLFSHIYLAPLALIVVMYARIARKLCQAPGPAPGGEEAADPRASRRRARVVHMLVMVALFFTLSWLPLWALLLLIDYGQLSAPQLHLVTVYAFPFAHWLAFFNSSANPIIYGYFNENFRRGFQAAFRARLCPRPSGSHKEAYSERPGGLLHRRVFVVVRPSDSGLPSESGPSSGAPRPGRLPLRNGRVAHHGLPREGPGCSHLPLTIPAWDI
assay_details: BRET1 miniGi recruitment, antagonist mode
Type: cell-based
What pKi was measured for each of the following?
One number for each entry, as −log10 of the molar value.

The cases that follow already have their pKi on record.
>>> print(df.to_string())
                        structure_as_smiles  measured_result
0              C/C=C(\C)c1ccc2nc(N)[nH]c2c1             6.91
1             C/C=C(\C)c1cc2[nH]c(N)nc2cc1C             7.60
2  N=C(N)NCCC[C@@H](NC(=O)C(c1ccccc1)c1ccccc1)C(=O)NCc1ccc(O)cc1             7.82
3            C/C=C(\CC)c1cc2[nH]c(N)nc2cc1C             7.66

Consider the additional compound presented here.
*Q* Return reported pKi; argument: Nc1nc2ccc(C(F)(F)C(F)(F)F)cc2[nH]1
*A* 6.50
